Where do these numbers come from? They come from patent US20260263433A1.

Assay: Reduction of tetrazolium salts by cyclic voltammetry in buffered aqueous solution
Type: physicochemical
Conditions: 50 mM PBS pH 7.4, 25° C., K3[Fe(CN)6] reference, irreversible reduction
Ered vs. NHE (peak potential Ep) vs -200 mV: less than gives yes (1); not less than gives no (0).

>  <COMPOUND>
Oc1ccccc1-n1nc(-c2ccccn2)n[n+]1-c1ccccc1.[Br-]

>  <CLASS_LABEL>
yes (1)

$$$$
>  <COMPOUND>
[Br-].c1ccc(-c2nn(-c3nc4ccccc4s3)[n+](-c3ccccc3)n2)cc1

>  <CLASS_LABEL>
no (0)

$$$$
>  <COMPOUND>
Oc1ccccc1-c1nn(-c2ccccc2)[n+](-c2ccccc2)n1.[Br-]

>  <CLASS_LABEL>
no (0)

$$$$
>  <COMPOUND>
Oc1ccccc1-c1nn(-c2ccccn2)[n+](-c2ccccc2)n1.[Br-]

>  <CLASS_LABEL>
no (0)

$$$$
>  <COMPOUND>
Oc1ccccc1-n1nc(-c2ccccc2)n[n+]1-c1ccccc1.[Br-]

>  <CLASS_LABEL>
yes (1)

$$$$
>  <COMPOUND>
[Br-].c1ccc(-n2nc(-c3ccccn3)n[n+]2-c2ccccc2)cc1

>  <CLASS_LABEL>
yes (1)

$$$$
>  <COMPOUND>
[Br-].c1ccc(-c2nn(-c3ccccn3)[n+](-c3ccccc3)n2)cc1

>  <CLASS_LABEL>
no (0)

$$$$
>  <COMPOUND>
Cc1nc(-[n+]2nc(-c3ccccc3)nn2-c2ccccc2)sc1C.[Br-] [MTT, reference compound]

>  <CLASS_LABEL>
no (0)

$$$$

====

Tested on: Caco-2 (Colon)
Assay: Antiproliferative activity, resazurin readout, Caco-2
Assay type: cell-based, human
Details: 72 h incubation, 0.032-100 μM, mean ± SDM, n = 3
# key: entry, value: IC50
REPORTED_ENDPOINT: IC50

>  <MOLECULE>
Oc1ccccc1-n1nc(-c2ccccn2)n[n+]1-c1ccccc1.[Br-] [5b]

>  <MEASURED_RESULT>
> 100 µM

$$$$
>  <MOLECULE>
Oc1ccccc1-c1nn(-c2ccccc2)[n+](-c2ccccc2)n1.[Br-] [7b]

>  <MEASURED_RESULT>
> 100 µM

$$$$
>  <MOLECULE>
[Br-].c1ccc(-n2nc(-c3ccccn3)n[n+]2-c2ccccc2)cc1 [6b]

>  <MEASURED_RESULT>
> 100 µM

$$$$
>  <MOLECULE>
Cc1nc(-[n+]2nc(-c3ccccc3)nn2-c2ccccc2)sc1C.[Br-] [MTT, reference compound]

>  <MEASURED_RESULT>
92 µM

$$$$
>  <MOLECULE>
[Br-].c1ccc(-c2nn(-c3nc4ccccc4s3)[n+](-c3ccccc3)n2)cc1 [1b]

>  <MEASURED_RESULT>
40 µM

$$$$
>  <MOLECULE>
Oc1ccccc1-n1nc(-c2ccccc2)n[n+]1-c1ccccc1.[Br-] [3b]

>  <MEASURED_RESULT>
> 100 µM

$$$$
>  <MOLECULE>
Oc1ccccc1-c1nn(-c2ccccn2)[n+](-c2ccccc2)n1.[Br-] [4b]

>  <MEASURED_RESULT>
29 µM

$$$$
>  <MOLECULE>
[Br-].c1ccc(-c2nn(-c3ccccn3)[n+](-c3ccccc3)n2)cc1 [2b]

>  <MEASURED_RESULT>
13 µM

$$$$

====

Test system: MDA-MB-231 (Breast)
Test: Antiproliferative activity, resazurin readout, MDA-MB-231
Type: cell-based, human
Conditions: Homo sapiens, MDA-MB-231; 72 h incubation, 0.032-100 μM, mean ± SDM, n = 3
pIC50: −log10 of the molar value.

>  <MOLECULE>
O=C(O)c1ccc(-n2nc(-c3ccccc3O)nc2-c2ccccc2O)cc1 [DFX, deferasirox, reference compound]

>  <pIC50>
4.77

$$$$

====

Tested on: MRC-5 (Normal lung)
Test: Antiproliferative activity, resazurin readout, MRC-5 normal lung fibroblasts
Type: cell-based, human
Settings: 72 h incubation, 0.032-100 μM, mean ± SDM, n = 3
IC50 vs 30 µM: less than gives MET; not less than gives NOT MET.

>  <COMPOUND>
c1ccc(-c2nn(-c3cnc4ccccc4n3)[n+](-c3ccccc3)n2)cc1 [QXT]

>  <CLASS_LABEL>
NOT MET

$$$$
>  <COMPOUND>
[Br-].c1ccc(-c2nn(-c3nccc4ccccc34)[n+](-c3ccccc3)n2)cc1 [IQT]

>  <CLASS_LABEL>
MET

$$$$
>  <COMPOUND>
Cc1nc(-[n+]2nc(-c3ccccc3)nn2-c2ccccc2)sc1C.[Br-] [MTT, reference compound]

>  <CLASS_LABEL>
NOT MET

$$$$
>  <COMPOUND>
c1ccc(NN=C(N=Nc2ncc3ccccc3n2)c2ccccc2)cc1 [QZF]

>  <CLASS_LABEL>
MET

$$$$
>  <COMPOUND>
Oc1ccccc1-c1nn(-c2ccccc2)[n+](-c2ccccc2)n1.[Br-] [7b]

>  <CLASS_LABEL>
NOT MET

$$$$
>  <COMPOUND>
Oc1ccccc1-n1nc(-c2ccccc2)n[n+]1-c1ccccc1.[Br-] [3b]

>  <CLASS_LABEL>
NOT MET

$$$$
>  <COMPOUND>
[Br-].c1ccc(-c2nn(-c3nc4ccccc4s3)[n+](-c3ccccc3)n2)cc1 [1b]

>  <CLASS_LABEL>
NOT MET

$$$$
>  <COMPOUND>
c1ccc(NN=C(N=Nc2cnc3ccccc3n2)c2ccccc2)cc1 [QXF]

>  <CLASS_LABEL>
MET

$$$$
>  <COMPOUND>
Oc1ccccc1-c1nn(-c2ccccn2)[n+](-c2ccccc2)n1.[Br-] [4b]

>  <CLASS_LABEL>
NOT MET

$$$$
>  <COMPOUND>
[Br-].c1ccc(-c2nn(-c3ccccn3)[n+](-c3ccccc3)n2)cc1 [2b]

>  <CLASS_LABEL>
NOT MET

$$$$
>  <COMPOUND>
Oc1ccccc1-n1nc(-c2ccccn2)n[n+]1-c1ccccc1.[Br-] [5b]

>  <CLASS_LABEL>
NOT MET

$$$$
>  <COMPOUND>
[Br-].c1ccc(-c2nn(-c3ccc4ccccc4n3)[n+](-c3ccccc3)n2)cc1 [QT]

>  <CLASS_LABEL>
MET

$$$$
>  <COMPOUND>
c1ccc(NN=C(N=Nc2ccc3ccccc3n2)c2ccccc2)cc1 [QF]

>  <CLASS_LABEL>
NOT MET

$$$$
>  <COMPOUND>
[Br-].c1ccc(-n2nc(-c3ccccn3)n[n+]2-c2ccccc2)cc1 [6b]

>  <CLASS_LABEL>
NOT MET

$$$$
